target.or.test.system: ΔF508-CFTR (Homo sapiens, UniProt P13569, DEL508-508)
Construct: host or cells: CFBE41o-, doxycycline-inducible
Sequence (P13569 with tags, fused parts or gaps DEL508-508): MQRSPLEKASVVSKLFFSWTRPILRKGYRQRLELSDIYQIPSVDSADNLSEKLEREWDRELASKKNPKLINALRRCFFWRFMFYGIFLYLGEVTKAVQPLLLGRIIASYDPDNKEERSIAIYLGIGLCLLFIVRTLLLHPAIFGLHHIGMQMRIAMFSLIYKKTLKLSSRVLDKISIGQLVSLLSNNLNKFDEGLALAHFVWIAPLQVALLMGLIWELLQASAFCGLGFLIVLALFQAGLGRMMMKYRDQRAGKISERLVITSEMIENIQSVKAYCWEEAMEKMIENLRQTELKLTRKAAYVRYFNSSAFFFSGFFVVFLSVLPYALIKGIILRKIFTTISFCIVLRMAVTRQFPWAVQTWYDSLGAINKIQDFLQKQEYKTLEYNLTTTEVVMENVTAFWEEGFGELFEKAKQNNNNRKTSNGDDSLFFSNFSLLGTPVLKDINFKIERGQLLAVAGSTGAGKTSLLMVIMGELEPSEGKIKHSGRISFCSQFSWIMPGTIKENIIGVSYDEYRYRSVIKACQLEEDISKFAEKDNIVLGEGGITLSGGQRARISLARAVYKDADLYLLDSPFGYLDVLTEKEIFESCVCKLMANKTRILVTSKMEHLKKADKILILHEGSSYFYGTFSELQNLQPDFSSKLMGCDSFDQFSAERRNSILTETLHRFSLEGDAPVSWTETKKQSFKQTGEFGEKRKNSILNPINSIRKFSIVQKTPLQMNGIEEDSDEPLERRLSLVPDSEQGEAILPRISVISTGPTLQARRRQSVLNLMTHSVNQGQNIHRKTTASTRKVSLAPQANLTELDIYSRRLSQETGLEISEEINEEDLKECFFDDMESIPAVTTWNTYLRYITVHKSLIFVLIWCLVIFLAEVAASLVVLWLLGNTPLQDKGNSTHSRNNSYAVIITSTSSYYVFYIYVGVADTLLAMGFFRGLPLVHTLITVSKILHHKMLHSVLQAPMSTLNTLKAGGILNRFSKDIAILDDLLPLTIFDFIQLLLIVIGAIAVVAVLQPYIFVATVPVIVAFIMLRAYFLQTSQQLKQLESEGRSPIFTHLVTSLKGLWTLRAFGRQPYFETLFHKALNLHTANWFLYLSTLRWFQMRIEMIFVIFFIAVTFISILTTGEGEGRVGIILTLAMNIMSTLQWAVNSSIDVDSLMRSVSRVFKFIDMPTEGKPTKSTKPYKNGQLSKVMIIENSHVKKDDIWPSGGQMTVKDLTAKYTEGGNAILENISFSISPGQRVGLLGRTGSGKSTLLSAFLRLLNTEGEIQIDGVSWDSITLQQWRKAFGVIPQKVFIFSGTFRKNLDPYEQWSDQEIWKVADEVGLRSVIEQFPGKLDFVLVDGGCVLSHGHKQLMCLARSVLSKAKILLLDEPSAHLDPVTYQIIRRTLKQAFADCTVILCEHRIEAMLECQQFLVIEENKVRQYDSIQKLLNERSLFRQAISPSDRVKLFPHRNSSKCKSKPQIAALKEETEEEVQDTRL
test.summary: CFTR cell surface levels using HRP-tagged ΔF508-CFTR expressing CFBE cells, in the presence of a co-corrector
Format: cell-based
condition.info: HRP-tagged ΔF508-CFTR CFBE cells, in the presence of 3 μM co-corrector; read-out: EC50
Kindly state EC50 for each of the entries shown.

Previously resolved entries follow.
compound	EC50
CN(C)S(=O)(=O)NC(=O)c1cc(N2CCN(c3ccncc3)CC2)c2c(C3CCC3)nn(C3CCCCC3)c2n1 [Compound 469]	0.125 µM
CC(C)c1nn(-c2ccccc2)c2nc(C(=O)NS(C)(=O)=O)cc(-c3cnc(N4CCOCC4)nc3)c12 [Compound 20]	0.546 µM
COCCC1CCN(c2cc(C(=O)NS(C)(=O)=O)nc3c2c(C2CCC2)nn3-c2ccccc2)CC1 [Compound 183]	0.214 µM
CN(C)S(=O)(=O)NC(=O)c1cc(N2CCC(N3CCC(F)CC3)CC2)c2c(C3CCC3)nn(-c3ccc(F)cc3)c2n1 [Compound 525]	0.074 µM
COCC1CCN(c2cc(C(=O)NS(=O)(=O)c3cn(C)c(C)n3)nc3c2c(C2CCC2)nn3-c2ccccc2)CC1 [Compound 250]	0.372 µM

I need EC50 for every entry listed below, if you could help.
1. CC(C)c1nn(-c2ccc(F)cc2)c2nc(C(=O)NS(C)(=O)=O)cc(N3CCC(C4CCN(C)CC4)CC3)c12 [Compound 320]
2. CC(C)c1nn(-c2cccc(N3CC(O)C3)c2)c2nc(C(=O)NS(C)(=O)=O)cc(-c3ccc(N4CCOCC4)cc3)c12 [Compound 105]

1. 0.0827 µM
2. 0.699 µM

###

target.or.test.system: ΔF508-CFTR (Homo sapiens, UniProt P13569, DEL508-508)
Construct: host or cells: CFBE41o-, doxycycline-inducible
test.summary: CFTR cell surface levels using HRP-tagged ΔF508-CFTR expressing CFBE cells, intrinsic corrector capacity
Type: cell-based
condition.info: HRP-tagged ΔF508-CFTR expressing CFBE41o- cells; compound alone (intrinsic corrector capacity); 20 hours at 33° C.; read-out: EC50
measure: pEC50
Numbers only, as −log10 of the molar value.

molecular.string	pEC50
CN(C)S(=O)(=O)NC(=O)c1cc(-c2ccc(CCN3CCOCC3)cc2)c2c(C3CCC3)nn(C3CCCCC3)c2n1	6.67
COCCS(=O)(=O)NC(=O)c1cc(-c2ccc(CN3CCOCC3)cc2)c2c(OC(C)C)nn(C3CCCCC3)c2n1	6.72

Dear reader, for each entry below, please note its pEC50.
1. CC(C)Oc1nn(C2CCCCC2)c2nc(C(=O)NS(C)(=O)=O)cc(-c3ccc(C(=O)N4CC(N(C)C)C4)cc3)c12
2. CCOC(=O)N1CCN(C2CCN(c3cc(C(=O)NS(=O)(=O)N(C)C)nc4c3c(C3CCC3)nn4-c3ccc(F)cc3)CC2)CC1
3. COC1CCN(C2CCN(c3cc(C(=O)NS(C)(=O)=O)nc4c3c(C3CCC3)nn4-c3ccc(F)cc3)CC2)CC1
4. CC(C)c1nn(-c2ccnc(N3CCCC3)c2)c2nc(C(=O)NS(C)(=O)=O)cc(-c3ccc(N4CCC(C#N)CC4)nc3)c12
5. CS(=O)(=O)NC(=O)c1cc(CN2CCOCC2)c2c(C3CCC3)nn(-c3ccc(F)cc3)c2n1
6. CC1(C)CC(c2nn(-c3ccccc3)c3nc(C(=O)NS(C)(=O)=O)cc(-c4ccc(N5CCC(C#N)CC5)nc4)c23)C1
7. CC(C)c1nn(-c2ccc(F)cc2)c2nc(C(=O)NS(C)(=O)=O)cc(OCCC3CCOCC3)c12

1: 6.76; 2: 7.06; 3: 6.18; 4: 6.21; 5: 5.48; 6: 6.47; 7: 6.53

###

Exercise: for every item that follows, state its recorded % Activation.
target.or.test.system: ΔF508-CFTR (Homo sapiens, UniProt P13569, DEL508-508)
Construct: host or cells: CFBE41o-, doxycycline-inducible
test.summary: CFTR cell surface levels using HRP-tagged ΔF508-CFTR expressing CFBE cells, intrinsic corrector capacity
Type: cell-based
Parameters: concentration or dose not given beside the values
condition.info: HRP-tagged ΔF508-CFTR expressing CFBE41o- cells; compound alone (intrinsic corrector capacity); 20 hours at 33° C.
Give bare numbers, in %.

Example entries begin here.
molecule	target.or.test.system	unit.name	% Activation
COC1CCN(c2cc(C(=O)NS(C)(=O)=O)nc3c2c(C(C)C)nn3-c2cccc(N(C)C)c2)CC1	ΔF508-CFTR (Homo sapiens, UniProt P13569, DEL508-508)	%	439.5
C[C@H](C1CCN(c2cc(C(=O)NS(=O)(=O)N(C)C)nc3c2c(C2CCC2)nn3-c2ccc(F)cc2)CC1)N1CCOCC1 (single isomer, unassigned)	ΔF508-CFTR (Homo sapiens, UniProt P13569, DEL508-508)	%	305.7
CS(=O)(=O)NC(=O)c1cc(N2CCC(N3CCCC(C#N)C3)CC2)c2c(C3CCC3)nn(-c3ccc(F)cc3)c2n1 (centres unmarked)	ΔF508-CFTR (Homo sapiens, UniProt P13569, DEL508-508)	%	365.1
Cc1nn(-c2ccccc2)c2nc(C(=O)NS(C)(=O)=O)cc(-c3ccc(N4CC(N(C)C)C4)cc3)c12	ΔF508-CFTR (Homo sapiens, UniProt P13569, DEL508-508)	%	52.497
CC(C)c1nn(-c2cccc(N3CCOCC3)c2)c2nc(C(=O)NS(C)(=O)=O)cc(-c3cnc(N4CCC(C#N)CC4)nc3)c12	ΔF508-CFTR (Homo sapiens, UniProt P13569, DEL508-508)	%	414.8

For every item below, please supply its % Activation.
1. COC[C@H]1CCCN1S(=O)(=O)NC(=O)c1cc(N2CCC(N3CCOCC3)CC2)c2c(C3CCC3)nn(-c3ccc(F)cc3)c2n1
2. CCCN(CC)S(=O)(=O)NC(=O)c1cc(N2CCC(COC)CC2)c2c(C3CCC3)nn(-c3ccccc3)c2n1
3. CCS(=O)(=O)NC(=O)c1cc(-c2ccc(N3CCOCC3)nc2)c2c(C)nn(C3CCCCC3)c2n1
4. CS(=O)(=O)NC(=O)c1cc(OC[C@@H](F)C2CCOCC2)c2c(C3CCC3)nn(-c3ccccc3)c2n1
5. Cc1nn(C2CCCCC2)c2nc(C(=O)NS(C)(=O)=O)cc(-c3ccc(N4CCOCC4)nc3)c12

1: 187.15; 2: 240.05; 3: 160.9; 4: 142.6; 5: 169.73

Provide % Activation values for the following items, in order.
1. CC(C)c1nn(-c2cccc(C(F)(F)F)c2)c2nc(C(=O)NS(C)(=O)=O)cc(-c3ccc(N4CCC(C#N)CC4)cc3)c12
2. CS(=O)(=O)NC(=O)c1cc(N2CCC(N3CCCCC3)CC2)c2c(C3CCC3)nn(-c3ccc(F)cc3)c2n1
3. COCC1CCN(c2cc(C(=O)NS(=O)(=O)CCN3C(=O)c4ccccc4C3=O)nc3c2c(C2CCC2)nn3-c2ccccc2)CC1
4. CC(C)c1nn(-c2ccc(F)cc2F)c2nc(C(=O)NS(C)(=O)=O)cc(-c3cnc(N4CCC(C#N)CC4)nc3)c12

299.63
253.5
473.35
163.83

###

target.or.test.system: ΔF508-CFTR (Homo sapiens, UniProt P13569, DEL508-508)
Construct: host or cells: CFBE41o-, doxycycline-inducible
test.summary: CFTR cell surface levels using HRP-tagged ΔF508-CFTR expressing CFBE cells, in the presence of a co-corrector
Type: cell-based
condition.info: HRP-tagged ΔF508-CFTR CFBE cells, in the presence of 3 μM co-corrector; read-out: EC50
Assignment: determine reported EC50 for the given compounds.
One number for each entry, in nM.

# annotated cases, reported EC50 shown
molecular.string	unit.name	EC50
CC1(COc2cc(C(=O)NS(C)(=O)=O)nc3c2c(C2CCC2)nn3-c2ccccc2)CC(F)(F)C1	nM	89
CC(C)c1nn(-c2ccc(F)cc2)c2nc(C(=O)NS(C)(=O)=O)cc(OCC3CCOCC3)c12	nM	220
Cc1nn(-c2ccc(F)cc2F)c2nc(C(=O)NS(C)(=O)=O)cc(-c3ccc(N4CCOCC4)nc3)c12	nM	351
CS(=O)(=O)NC(=O)c1cc(N2CC3(CCCCC3)C2)c2c(C3CCC3)nn(-c3ccccc3)c2n1	nM	866
CC(C)c1nn(C2CCCCC2)c2nc(C(=O)NS(C)(=O)=O)cc(-c3cnc(N(C)C4CCOCC4)nc3)c12	nM	239
CC(C)N(CCOc1cc(C(=O)NS(C)(=O)=O)nc2c1c(C1CCC1)nn2-c1ccccc1)C1COC1	nM	153

Report EC50 for "CN(C)S(=O)(=O)NC(=O)c1cc(OCC2CCN(C3CCOCC3)CC2)c2c(C3CCC3)nn(-c3ccc(F)cc3)c2n1" please. 375
